Attribution: ChEMBL document CHEMBL1201862

# Tested on: SK-OV-3
# Assay: NCI tumour cell line growth inhibition, 48 h
Active and inactive are the calls of the source. No stated cut-off is given here; in the data, active = GI50 up to about 1.1 µM and inactive = higher.
GI50: recorded values

| Compound | GI50 |
| --- | --- |
| Cc1nc(=O)[nH]c2[nH][nH]c(=O)c12 | > 100 µM (inactive) |
| CC/C(=C\c1ccc(OC)cc1)c1ccc(OC)cc1 | > 100 µM (inactive) |
| C[C@]12CCC(=O)C=C1CC[C@@H]1[C@@H]2[C@@H](O)C[C@@]2(C)[C@H]1CC[C@]2(O)C(=O)COC(=O)COCC(=O)O | > 100 µM (inactive) |
| Oc1ccc2ccccc2c1C(c1ccc(Cl)cc1)c1c(O)ccc2ccccc12 | 4.66 µM (inactive) |
| O=C(C#Cc1cnc(O)nc1O)c1ccccc1Cl | 51.3 µM (inactive) |

Consider now this further compound.
Which measured GI50 value corresponds to COc1cccc(NC(=O)C(=O)C(C(=O)c2ccccc2F)C2OC(=O)c3ccccc32)c1 (stereo not drawn) ? 35.2 µM (inactive)
